// reported AUC(0-t) for each item listed
Experiment summary: Pharmacokinetics in SD rats after intravenous or oral administration
Type: in vivo
Assay setup: male, rat, plasma, iv, I.V., 1 mg/kg
Where a name gives a salt, the structure may show the parent alone.
Just the number in ng·h/mL, nothing appended.

[
  {
    "Molecule": "CCOC(=O)CN1CCc2cc(OC/C(=C/F)CN)ccc2C1=O [Compound 12, hydrochloride]",
    "AUC(0-t) (ng·h/mL)": 837
  }
]

Please look at the following molecule next.
Data request, read-out AUC(0-t), for Cc1ccc(N2CCc3cc(OC/C(=C/F)CN)ccc3C2=O)cc1 [Compound 24, hydrochloride]
364
